Task for the reader: assign each of the following binders its reported absorbance at 490 nm.
- measuredOn: M3
- testProtocol: ELISA on coated antigen, column M3

binder	absorbance at 490 nm
PDL1-31D9 (antibody, V domains shown, Only FR/CDR pieces are tied to the clone) VH: QMQLVESGGGLVQPGGSLRLSCSASGFTFSSYVMHWVRQAPGKGLEYVSAISSNGGSTYYADSVKGRFTISRDNSKNTLYLQMSSLRSEDTAVYYCAREHFSTYSYGVDVWGPGTTVTVSS VL: DIVMTQTPLSLPVTPGEPASISCRSSQSLLDSDDGNTYLDWYLQKPGQSPQLLIYMISFRASGVPDRFSGSGSGTDFTLKISRVEAEDSGIYYCMQRVEFPYTFGQGTKLEIK	2.5
PDL1-27F8 (antibody, V domains shown, Only FR/CDR pieces are tied to the clone) VH: QVQLVQSGAEVKKPGSSVKVSCKASGGTFSSSAFSWVRQAPGHGLEWMGRIIPMFDMTDYAQRFQGRLTIIADESSSTAYMELSSLRSEDTAVYYCARSNPHYMDVWGQGTTVTVSS VL: QLVLTQPPSVSGAPGQRVTISCTGSNSDIGAGHDVHWYQQIPGTAPKVLIYGNTDRPSGVPDRFSGSKSGTSASLAITGLQAEDEADYYCQSYDSSLSGYVFGTGTKVTVL	0.9
PDL1-11A7 (antibody, V domains shown, Only FR/CDR pieces are tied to the clone) VH: QVQLVQSGAEVKKPGASVKVSCKVSGYTLTELSMHWVRQAPGKGLEWMGGFDPEDGETIYAQKFQGRVTMTEDTSTDTAYMELSSLRSEDTAVYYCARDPWGGYYGMDVWGQGTTVTVSS VL: DIQMTQSPSSVSASVGDRVTINCRASQGIRTWLAWYQQKPGKAPKLLIYAASNLQSGVPSRFSGSGSGTDFTLTIASLQPEDFATYYCQQANSFPLTFGGGTKVEIK	0.8

I have 3 binders here; please give me absorbance at 490 nm for each one.
1. PDL1-31E6 (antibody, V domains shown, Only FR/CDR pieces are tied to the clone) VH: QVQLVQSGAEVKKPGSSVKVSCKASGGTFSSYAISWVRQAPGQGLEWMGGIIPIFGTANYAQKFQGRVTITADESTSTAYMELSSLRSEDTAVYYCARGGRSFGAFDSWGQGALVTVSS VL: DIQMTQSPATLSLSPGERATLSCTASQSISSYLAWYQQKPGQAPRLLIYDSSNRATGIPARFSGSGSGTAFTLTISSLEPEDFAVYFCQQRGQWPLTFGGGTKVDIK
2. PDL1-23E5 (antibody, V domains shown, Only FR/CDR pieces are tied to the clone) VH: QVQLVQSGAEVVKPGSSVKVSCKASGDTFSRYAISWVRQAPGQAPEWMGRIIPVLGAANYARKFQDRVTITADISTTTAFMELTSLRSEDTAVYYCARSLSGYSLGAFDVWGPGTLVTVSS VL: QLVLTQPPSVSGAPGQSVSISCIGSNSNIGTPYDVHWYQQIPGEAPKLLIYGSTNRPSGVPDRFSGSRSGSSASLDITGLQADDEAYYYCQSYDRSLGVSDVVFGGGTKLTVL
3. PDL1-30B1 (antibody, V domains shown, Only FR/CDR pieces are tied to the clone) VH: QVQLVESGGGVVQPGRSLRLSCAASGFTFSSYAMHWVRQGPGKGLEWVAVISYDGSNEFYADSVKGRFTISRDNSKNTLYLQMNSLRAEDTAVYYCARGDYNGVYMDVWGQGTTVTVSS VL: DIVMTQTPLSLSVTPGQPASISCKSSQSLLHSDGKTYLYWYLQKPGQSPQLLIYEVSKRFSGVPDRFSGSGSGTDFTLKIGRVEAEDVGVYYCMQGLHLPYTFGQGTKLEIK

stdout:
1. 1
2. 0.9
3. 2.8
